Measured IC50 accompanies every entry in the list below.
biological target: Glycogen synthase kinase-3 beta (Homo sapiens, UniProt P49841)
Sequence (P49841 whole entry): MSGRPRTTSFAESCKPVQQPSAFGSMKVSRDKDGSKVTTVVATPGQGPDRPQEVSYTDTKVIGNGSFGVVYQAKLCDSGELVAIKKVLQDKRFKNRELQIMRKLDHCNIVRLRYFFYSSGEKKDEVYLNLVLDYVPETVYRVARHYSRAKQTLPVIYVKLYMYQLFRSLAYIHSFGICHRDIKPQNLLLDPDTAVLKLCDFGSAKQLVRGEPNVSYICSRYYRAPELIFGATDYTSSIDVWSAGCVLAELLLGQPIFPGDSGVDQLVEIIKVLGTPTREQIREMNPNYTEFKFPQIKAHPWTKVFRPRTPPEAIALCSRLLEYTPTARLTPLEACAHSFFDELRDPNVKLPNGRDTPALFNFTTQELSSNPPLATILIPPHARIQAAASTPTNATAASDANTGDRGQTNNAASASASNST

Q: Give recorded IC50 with Glycogen synthase kinase-3 beta (Homo sapiens, UniProt P49841) for the following molecule: CCC1(c2cccc(-c3cn(C)nc3C)c2)C2=CN=NC2NC2=C1C(=O)N(C)C(C)(C)C2 (stereo not drawn) [US20250313563, Compound 948304]
A: < 100 nM

Q: Give recorded IC50 with Glycogen synthase kinase-3 beta (Homo sapiens, UniProt P49841) for the following molecule: CC[C@@]1(c2cccc(C(F)(F)F)c2)C2=CN=NC2NC2=C1C(=O)CC1(CCCC1)C2 (stereo partly drawn) [US20250313563, Compound 801310]
A: > 1670 nM

Q: Give recorded IC50 with Glycogen synthase kinase-3 beta (Homo sapiens, UniProt P49841) for the following molecule: CC[C@@]1(c2cccc(C(F)(F)F)c2)C2=CN=NC2NC2=C1C(=O)N[C@@H](C)C2 (stereo partly drawn) [US20250313563, Compound 912099]
A: > 5000 nM

====

molecular target: Glycogen synthase kinase-3 beta (Homo sapiens, UniProt P49841)
pIC50: −log10 of the molar value.
Measured pIC50 accompanies every entry in the list below.

CCc1cc(-c2cccc([C@]3(CC)C4=CN=NC4NC4=C3C(=O)NC(C)(C)C4)c2)ccn1 (some centres not stated) : 6.00 to 7.00
CC1(C)CC(=O)C2=C(C1)NC1N=NC(CCC(F)(F)F)=C1[C@]21CCc2c(F)cccc21 (some centres not stated) : 6.00 to 7.00
CC[C@]1(c2cccc(C(F)(F)F)c2)C2=CN=NC2NC2=C1C(=O)N[C@@H](C)C2 (some centres not stated) : < 5.30
CC1(C)CC(=O)C2=C(C1)NC1=C(CN=N1)C2(C)C : < 5.78
CCC1(c2cccc(-c3cnnc(C)c3)c2)C2=CN=NC2NC2=C1C(=O)NC(C)(C)C2 (configuration not stated) : 5.30 to 6.00

Q: Give recorded pIC50 with Glycogen synthase kinase-3 beta (Homo sapiens, UniProt P49841) for the following molecule: CC(C)(C)CC1=C2C(N=N1)NC1=C(C(=O)CC(C)(C)C1)[C@]21CCCc2ccccc21 (some centres not stated)
A: > 7.00

Q: Give recorded pIC50 with Glycogen synthase kinase-3 beta (Homo sapiens, UniProt P49841) for the following molecule: CCC1(c2cccc(C3CCOCC3)c2)C2=CN=NC2NC2=C1C(=O)CC(C)(C)C2 (configuration not stated)
A: 6.00 to 7.00

====

pIC50: −log10 of the molar value.
Reported pIC50 for target or system Glycogen synthase kinase-3 beta (Homo sapiens), by entry.

CCC(C)C(=O)N1CC2(C1)CC1(CO2)C2=C(N=NC2)NC2=C1C(=O)CC(C)(C)C2 (stereo not drawn) : 6.00 to 7.00
CC1(C)CC(=O)C2=C(C1)NC1=C(CN=N1)[C@@]21CCO[C@@H](C(C)(C)C)C1 : 5.30 to 6.00

// switching to the query compound
Q: Give recorded pIC50 with Glycogen synthase kinase-3 beta (Homo sapiens) for the following compound: COc1ccc(S(=O)(=O)N2CCC3(CC2)C2=C(N=NC2)NC2=C3C(=O)CC(C)(C)C2)cn1
A: > 7.00

====

target: Glycogen synthase kinase-3 beta (Homo sapiens, UniProt P49841)
OBSERVATION_TYPE: IC50

Cc1cnc2c(S(=O)(=O)N3CCC4(CC3)C3=C(N=NC3)NC3=C4C(=O)CC(C)(C)C3)cccc2c1 : < 100 nM

Q: Give recorded IC50 with Glycogen synthase kinase-3 beta (Homo sapiens, UniProt P49841) for the following compound: CCC1(c2ccccc2)C2=C(CC(C)(C)CC2=O)NC2N=NC(Br)=C21 (stereo unspecified)
A: < 100 nM

Q: Give recorded IC50 with Glycogen synthase kinase-3 beta (Homo sapiens, UniProt P49841) for the following compound: COCCn1cc(S(=O)(=O)N2CCC3(CC2)C2=C(N=NC2)NC2=C3C(=O)CC(C)(C)C2)cn1
A: < 100 nM

Q: Give recorded IC50 with Glycogen synthase kinase-3 beta (Homo sapiens, UniProt P49841) for the following compound: CC[C@]1(c2cccc(-c3ccnc(C(F)F)c3)c2)C2=CN=NC2NC2=C1C(=O)NC(C)(C)C2 (stereo partly specified)
A: > 5000 nM

Q: Give recorded IC50 with Glycogen synthase kinase-3 beta (Homo sapiens, UniProt P49841) for the following compound: CC[C@@]1(c2cccc(C(F)(F)F)c2)C2=C(N=NC2)NC2=C1C(=O)CC2
A: > 5000 nM

Q: Give recorded IC50 with Glycogen synthase kinase-3 beta (Homo sapiens, UniProt P49841) for the following compound: CC[C@]1(c2cccc(-c3ccnc(C)c3)c2)C2=CN=NC2NC2=C1C(=O)NC(C)(COC)C2 (stereo partly specified)
A: 1000 to 5000 nM

Q: Give recorded IC50 with Glycogen synthase kinase-3 beta (Homo sapiens, UniProt P49841) for the following compound: COc1cccc(S(=O)(=O)N2CCCC3(CC2)C2=CN=NC2NC2=C3C(=O)CC(C)(C)C2)c1 (stereo unspecified)
A: 100 to 1000 nM

Q: Give recorded IC50 with Glycogen synthase kinase-3 beta (Homo sapiens, UniProt P49841) for the following compound: CCC1(c2cccc(S(=O)(=O)C3CC3)c2)C2=CN=NC2NC2=C1C(=O)NC(C)(C)C2 (stereo unspecified)
A: < 100 nM

Q: Give recorded IC50 with Glycogen synthase kinase-3 beta (Homo sapiens, UniProt P49841) for the following compound: CC[C@]1(c2cccc(-c3ccncc3Cl)c2)C2=CN=NC2NC2=C1C(=O)NC(C)(C)C2 (stereo partly specified)
A: 100 to 1000 nM

Q: Give recorded IC50 with Glycogen synthase kinase-3 beta (Homo sapiens, UniProt P49841) for the following compound: CC1(C)CC(=O)C2=C(C1)NC1=C(CN=N1)C21COC2(CN(C(=O)CC3CC(F)(F)C3)C2)C1 (stereo unspecified)
A: < 100 nM

Q: Give recorded IC50 with Glycogen synthase kinase-3 beta (Homo sapiens, UniProt P49841) for the following compound: CC[C@@]1(c2ccccc2)C2=CN=NC2NC2=C1C(=O)C[C@@H](C)C2 (stereo partly specified)
A: > 5000 nM

Q: Give recorded IC50 with Glycogen synthase kinase-3 beta (Homo sapiens, UniProt P49841) for the following compound: CC[C@]1(c2cccc(S(=O)(=O)C(C)C)c2)C2=CN=NC2NC2=C1C(=O)CC(C)(C)C2 (stereo partly specified)
A: 1000 to 5000 nM

Q: Give recorded IC50 with Glycogen synthase kinase-3 beta (Homo sapiens, UniProt P49841) for the following compound: CCC1(c2cccc(C(F)(F)F)c2)C2=C(CC(C)(C)CC2=O)NC2N=NC(Br)=C21 (stereo unspecified)
A: < 100 nM
